Here the recorded Neutralization (IC50) is given for each entry.
system: HA of A/Wilson Smith N/33 (H1N1) (influenza A virus, UniProt P03454 18-565)
Sequence (P03454 18-565 limits assumed): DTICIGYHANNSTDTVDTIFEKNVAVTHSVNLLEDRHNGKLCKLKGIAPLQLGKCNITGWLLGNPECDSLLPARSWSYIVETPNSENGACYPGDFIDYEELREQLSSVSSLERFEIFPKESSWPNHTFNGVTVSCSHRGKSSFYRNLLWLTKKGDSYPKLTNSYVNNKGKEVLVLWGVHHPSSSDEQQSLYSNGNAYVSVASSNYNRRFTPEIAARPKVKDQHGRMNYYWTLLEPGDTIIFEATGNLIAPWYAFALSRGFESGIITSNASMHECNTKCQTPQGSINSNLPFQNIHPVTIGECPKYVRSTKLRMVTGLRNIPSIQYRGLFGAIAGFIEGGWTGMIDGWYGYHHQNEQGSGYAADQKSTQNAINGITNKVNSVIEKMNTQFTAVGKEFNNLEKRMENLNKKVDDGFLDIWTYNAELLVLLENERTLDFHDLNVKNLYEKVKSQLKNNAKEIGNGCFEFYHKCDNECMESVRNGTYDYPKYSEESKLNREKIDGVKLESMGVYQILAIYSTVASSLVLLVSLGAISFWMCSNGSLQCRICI
protocol-summary: cell-based or functional assay
Report the value in nM with no unit label.

Inquiry: Returns the measured Neutralization (IC50) for the input binder. Input: GL20 IgG (antibody, V domains shown) VH: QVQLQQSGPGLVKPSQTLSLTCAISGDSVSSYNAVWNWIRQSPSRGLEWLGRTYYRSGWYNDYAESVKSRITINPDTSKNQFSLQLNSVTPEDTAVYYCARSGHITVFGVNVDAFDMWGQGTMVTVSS VL: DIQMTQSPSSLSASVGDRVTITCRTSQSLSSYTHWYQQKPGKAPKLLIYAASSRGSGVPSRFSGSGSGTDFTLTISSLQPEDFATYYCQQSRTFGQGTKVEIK
Reply text: 13

Continue with the binder presented below.
Inquiry: Returns the measured Neutralization (IC50) for the input binder. Input: FY1 IgG (antibody, V domains shown) VH: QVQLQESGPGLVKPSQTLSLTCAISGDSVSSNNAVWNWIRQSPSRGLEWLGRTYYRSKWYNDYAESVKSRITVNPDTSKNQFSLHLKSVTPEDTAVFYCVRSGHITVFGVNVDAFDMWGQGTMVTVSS VL: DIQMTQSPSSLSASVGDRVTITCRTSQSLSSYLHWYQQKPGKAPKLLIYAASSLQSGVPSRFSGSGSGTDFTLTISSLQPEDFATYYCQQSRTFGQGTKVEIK
Reply text: 8.8

The origin of these recorded values is patent US20180155413A1.
